Data provenance is patent US11845760B2.

Overview of reported pIC50 across a group of molecules:
- Test system: HCT116 MTAP null cells
- Method Summary: HCT116 MTAP null cell line proliferation (CellTiter-Glo cell viability, 6 days)
- Type: cell-based
- Study Conditions: HCT116 MTAP null cells, 6 days of treatment, CellTiter-Glo cell viability; read-out: HCT-116 MTAP null IC50
Lab note: report pIC50 as minus log10 of the concentration in molar units, number only.

stdin: Read the entry C[C@@H]1COC[C@H](c2ccc(C(F)(F)F)cc2F)N1C(=O)c1ccc2nc(N)c3c(c2c1)COC3 (racemic) and write its reported pIC50.
stdout: 7.24

stdin: Read the entry Nc1nc2cc(Cl)c(C(=O)N3CCOCC3c3ccc(F)c(C(F)(F)F)c3)cc2c2c1COC2 (racemic) and write its reported pIC50.
stdout: 6.97

stdin: Read the entry CC(C)(C)OC(=O)N1CCN(C(=O)c2cc3c4c(c(N)nc3cn2)COC4)[C@H](c2ccc(C(F)(F)F)cc2)C1 (single isomer, unassigned) and write its reported pIC50.
stdout: 7.25
